testedSystem: Angiotensin-converting enzyme (Rattus norvegicus) (UniProt P47820)
Sequence (whole entry): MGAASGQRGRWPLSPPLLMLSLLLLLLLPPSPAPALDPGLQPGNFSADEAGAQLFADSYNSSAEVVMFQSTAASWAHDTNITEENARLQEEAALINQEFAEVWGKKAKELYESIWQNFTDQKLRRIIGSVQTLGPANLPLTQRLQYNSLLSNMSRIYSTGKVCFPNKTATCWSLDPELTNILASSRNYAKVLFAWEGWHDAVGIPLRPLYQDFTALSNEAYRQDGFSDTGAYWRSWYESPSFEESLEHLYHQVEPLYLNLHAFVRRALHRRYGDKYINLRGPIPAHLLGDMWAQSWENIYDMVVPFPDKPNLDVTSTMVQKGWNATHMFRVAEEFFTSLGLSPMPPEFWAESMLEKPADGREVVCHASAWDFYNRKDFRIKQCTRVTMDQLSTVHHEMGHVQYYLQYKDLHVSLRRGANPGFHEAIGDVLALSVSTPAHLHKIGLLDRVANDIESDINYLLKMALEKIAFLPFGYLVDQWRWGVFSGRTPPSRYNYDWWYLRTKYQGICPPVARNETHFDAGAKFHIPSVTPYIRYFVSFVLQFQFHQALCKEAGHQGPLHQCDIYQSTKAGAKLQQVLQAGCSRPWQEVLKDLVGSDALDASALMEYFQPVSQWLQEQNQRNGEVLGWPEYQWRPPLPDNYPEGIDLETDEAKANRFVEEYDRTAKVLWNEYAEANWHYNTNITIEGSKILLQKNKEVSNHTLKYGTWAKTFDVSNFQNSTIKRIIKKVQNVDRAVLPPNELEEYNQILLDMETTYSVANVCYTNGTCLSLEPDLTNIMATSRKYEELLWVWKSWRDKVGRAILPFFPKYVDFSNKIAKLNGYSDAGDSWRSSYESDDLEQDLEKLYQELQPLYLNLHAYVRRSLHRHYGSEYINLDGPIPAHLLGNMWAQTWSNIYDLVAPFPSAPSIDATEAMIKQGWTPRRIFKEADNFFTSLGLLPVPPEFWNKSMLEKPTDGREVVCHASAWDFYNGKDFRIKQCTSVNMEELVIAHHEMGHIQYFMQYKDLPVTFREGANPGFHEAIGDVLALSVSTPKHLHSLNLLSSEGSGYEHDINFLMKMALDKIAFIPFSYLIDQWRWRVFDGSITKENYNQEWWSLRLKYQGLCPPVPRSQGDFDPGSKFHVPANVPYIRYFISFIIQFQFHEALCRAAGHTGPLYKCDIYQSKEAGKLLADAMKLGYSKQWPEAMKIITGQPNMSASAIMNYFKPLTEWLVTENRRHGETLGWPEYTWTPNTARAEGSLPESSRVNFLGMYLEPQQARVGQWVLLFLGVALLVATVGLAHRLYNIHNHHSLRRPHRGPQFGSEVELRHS
assayComment: Peroral dose required to inhibit angiotensin I induced vasopressor response in normotensive conscious rats
Type: functional
Values of ID50 strictly less than 0.2 mg/kg map to criterion met, and values of at least 0.2 mg/kg map to criterion not met.

Determine if CC(CS)C(=O)N(CC(=O)O)C1CC1 (stereo not given) shows ID50 strictly lower than 0.2 mg/kg. criterion not met

Determine if CSCCCN(CC(=O)O)C(=O)C(C)CSC(C)=O (stereo not given) shows ID50 strictly lower than 0.2 mg/kg. criterion not met

Determine if CC(=O)SCC(C)C(=O)N(CC(=O)O)C1CCCC1 (stereo not given) shows ID50 strictly lower than 0.2 mg/kg. criterion met

Determine if CC(=O)SCC(C)C(=O)N(CC(=O)O)c1ccc2c(c1)CCC2 (stereo not given) shows ID50 strictly lower than 0.2 mg/kg. criterion not met

Determine if CC(CS)C(=O)N(CC(=O)O)C1CCCC1 (stereo not given) shows ID50 strictly lower than 0.2 mg/kg. criterion met

Determine if CC(CS)C(=O)N(CC(=O)O)C1CCC1 (stereo not given) shows ID50 strictly lower than 0.2 mg/kg. criterion not met

Determine if CC(=O)SCC(C)C(=O)N(CC(=O)O)c1cccc(C)c1 (stereo not given) shows ID50 strictly lower than 0.2 mg/kg. criterion met

Determine if CC(CSC(=O)CC(C)(C)C)C(=O)N(CC(=O)O)C1CCCC1 (stereo not given) shows ID50 strictly lower than 0.2 mg/kg. criterion not met
